Target: Cloned Human Serotonin Receptor, subtype 7 (h5HT7) (Homo sapiens, UniProt P34969)
Sequence (P34969 whole entry): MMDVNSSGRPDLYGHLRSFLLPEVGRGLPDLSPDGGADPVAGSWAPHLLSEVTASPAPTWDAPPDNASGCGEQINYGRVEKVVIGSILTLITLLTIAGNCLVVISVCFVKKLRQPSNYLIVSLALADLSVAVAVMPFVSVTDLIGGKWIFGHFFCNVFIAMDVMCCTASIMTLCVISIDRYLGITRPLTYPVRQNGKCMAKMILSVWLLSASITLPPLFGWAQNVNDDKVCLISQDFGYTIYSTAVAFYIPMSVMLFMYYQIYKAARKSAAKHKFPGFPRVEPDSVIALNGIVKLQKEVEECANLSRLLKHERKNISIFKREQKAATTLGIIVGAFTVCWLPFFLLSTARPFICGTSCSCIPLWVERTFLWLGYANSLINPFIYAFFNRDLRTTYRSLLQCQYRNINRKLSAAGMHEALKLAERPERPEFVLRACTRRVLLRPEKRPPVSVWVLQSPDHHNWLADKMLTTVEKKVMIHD
Assay: Radioligand binding assay, cloned human 5-HT7 receptor in CHO cells, [125I]LSD, Flashplate
Settings: h5HT7 expressed in CHO cells; [125I]LSD 0.82 nM; triplicate determinations; read-out: 5-HT7 IC-50
pIC50: −log10 of the molar value.
property_measured: pIC50

{"compound_structure_string": "O=S(=O)(NCCCCN1CCc2ccccc2C1)c1cc(F)ccc1F", "pIC50": 7.22}
{"compound_structure_string": "COc1cc2c(cc1OC)CN(CCCCNS(=O)(=O)c1cccc(C)c1)CC2", "pIC50": 7.43}
{"compound_structure_string": "COc1cc2c(cc1OC)CN(CCCCNS(=O)(=O)c1cc(F)c(F)cc1Cl)CC2", "pIC50": 7.41}

Sourced from patent US7211585B2
